This collection of values is drawn from ChEMBL document CHEMBL3085651.

- System: MCF7
- Protocol Notes: Cytotoxicity against human MCF7 cells assessed as cell viability after 48 hrs by MTT assay
- Format: functional, cell-based
- Condition Set: MCF7, 48 h

Smiles Repr: C=C/C(C)=C/CC/C(C)=C/c1cc(C(=O)OC)co1
IC50, µM: 28.9

Smiles Repr: C=C/C(C)=C\CC/C(C)=C/c1cc(C(=O)N2CCN(Cc3ccccc3)CC2)co1
IC50, µM: 53.7

Smiles Repr: C=C/C(C)=C\CC/C(C)=C/c1cc(C(=O)N2CCN(C(c3ccccc3)c3ccccc3)CC2)co1
IC50, µM: 26.7

Smiles Repr: C=C/C(C)=C\CC/C(C)=C/c1cc(C(=O)N2CCN(C)CC2)co1
IC50, µM: 27.9

Smiles Repr: C=C/C(C)=C\CC/C(C)=C/c1cc(C(=O)N2CCN(Cc3ccc4c(c3)OCO4)CC2)co1
IC50, µM: 50.8

Smiles Repr: C=C/C(C)=C\CC/C(C)=C/c1cc(C(=O)N2CCN(CC)CC2)co1
IC50, µM: 30.3

Smiles Repr: C=C/C(C)=C/CC/C(C)=C/c1cc(C(=O)O)co1
IC50, µM: 74.5

Smiles Repr: C=C/C(C)=C\CC/C(C)=C/c1cc(C(=O)OC)co1
IC50, µM: 75.4

Smiles Repr: C=C/C(C)=C\CC/C(C)=C/c1cc(C(=O)N2CCN(c3ccccc3)CC2)co1
IC50, µM: 39.8

Smiles Repr: C=C/C(C)=C\CC/C(C)=C/c1cc(C(=O)NCCCNC(=O)c2coc(/C=C(\C)CC/C=C(/C)C=C)c2)co1
IC50, µM: 57.7

Smiles Repr: C=C/C(C)=C\CC/C(C)=C/c1cc(C(=O)O)co1
IC50, µM: 61.9

Smiles Repr: C=C/C(C)=C\CC/C(C)=C/c1cc(C(=O)Nc2ccc(C)cc2)co1
IC50, µM: 65.3
